test system: TAC mice; experiment: TAC mice: left ventricular pressure with Mikro-tip catheter; assay type: in vivo; settings: end of 6-week treatment, TMZ 6, NA 2.4, CV-8814 7.5, CV-8972 10 mg/kg/day
parameter: left ventricular developed pressure (LVDP) (mm Hg)

INSERT INTO assay_data (compound, numeric_readout) VALUES
  ('COc1ccc(CN2CCN(CCO)CC2)c(OC)c1OC', 123),
  ('O=C(O)c1cccnc1 [NA, nicotinic acid, reference compound]', 141),
  ('COc1ccc(CN2CCNCC2)c(OC)c1OC', 137),
  ('COc1ccc(CN2CCN(CCOC(=O)c3cccnc3)CC2)c(OC)c1OC', 116);
